B1: 6NMW (parent)
chain: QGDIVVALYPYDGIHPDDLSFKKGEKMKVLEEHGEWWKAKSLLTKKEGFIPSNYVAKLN

Variants of: B1
Test: folding stability dG (cDNA display proteolysis); higher = more stable
Conditions: PBS, room temperature
Recorded folding stability dG values for a group of variants are listed next.
Give the value, in units of kcal/mol, as a plain number.

// known answers, use as guide
G13S	3.39
E47A	2.77
V29K	1.25
V6L	2.18
V6T	2.18
G48K	0.081

Entry `G34S` : reported folding stability dG = ?
2

Entry `W36H` : reported folding stability dG = ?
2.3

Entry `P51L` : reported folding stability dG = ?
1.54

Entry `Q1Y` : reported folding stability dG = ?
4.04

Entry `K45Y` : reported folding stability dG = ?
3.97

Entry `E31P` : reported folding stability dG = ?
-0.549

Entry `L19D` : reported folding stability dG = ?
-0.824

Entry `P10Q` : reported folding stability dG = ?
3.77

Entry `E32Q` : reported folding stability dG = ?
4.09

Sourced from the MegaScale stability set (Tsuboyama et al. 2023)
